system: RIVA; assay: growth inhibition by drug alone (1 - RLU/untreated control) (fraction); higher = stronger inhibition; conditions: 10 nM; time (day): 6; 177Lu-lilotomab satetraxetan 0 ug/ml
# binarize growth inhibition by drug alone: threshold -0.2 inclusive, high side True, low side False

Test whether the compound CC[C@@H](C(=O)[C@@H](C)[C@@H](O)[C@H](C)[C@@H]1O[C@@H]([C@@H](CC)C(=O)O)CC[C@@H]1C)[C@H]1O[C@]2(C=C[C@@H](O)[C@]3(CC[C@@](C)([C@H]4CC[C@](O)(CC)[C@H](C)O4)O3)O2)[C@H](C)C[C@@H]1C records growth inhibition by drug alone of -0.2 or higher.
False

Also check O=P1(N(CCCl)CCCl)NCCCO1 (stereo not given) [Cyclophosphamide monohydrate]
False

Would you mind doing N.N.[Cl][Pt][Cl] [Cisplatin] as well?
True

Now consider O=C(O)c1nn(Cc2ccc(Cl)cc2Cl)c2ccccc12 and answer again.
False

Further, for N[C@@H](Cc1ccc(N(CCCl)CCCl)cc1)C(=O)O ?
False

What do we get for CC(C)[C@]12O[C@H]1[C@@H]1O[C@]13[C@]1(O[C@H]1C[C@H]1C4=C(CC[C@@]13C)C(=O)OC4)[C@@H]2O [Triptolide] ?
True

Try this compound next: CCC1(c2ccc(N)cc2)CCC(=O)NC1=O (stereo not given) [Aminoglutethimide (Cytadren)]
False

# repeat for CC(=O)Nc1ccc(OC[C@](C)(O)C(=O)Nc2ccc([N+](=O)[O-])c(C(F)(F)F)c2)cc1
False

// query: CN(C)CCN(C)CCc1ccc(Cl)c(Cl)c1
False

###

Would you kindly list growth inhibition by drug plus 177Lu-lilotomab satetraxetan for each of these molecules?
test system: U-2932; experiment: growth inhibition by drug plus 177Lu-lilotomab satetraxetan (1 - RLU/untreated control) (fraction); higher = stronger inhibition; conditions: 1000 nM; time (day): 3; 177Lu-lilotomab satetraxetan 1 ug/ml
// return a plain number; no unit text

What does the record list as growth inhibition by drug plus 177Lu-lilotomab satetraxetan for O=C(Oc1ccc([N+](=O)[O-])cc1)N1CCC(C(O)(c2ccc3c(c2)OCO3)c2ccc3c(c2)OCO3)CC1 ?
-0.0484

Then this molecule: CC1=C2C[C@H]3[C@@H](CC=C4C[C@@H](O)CC[C@@]43C)[C@@H]2CC[C@]12O[C@@H]1C[C@H](C)CN[C@H]1[C@H]2C [Cyclopamine]
-0.0532

Same read-out for Cn1cc(C2=C(c3cn(C4CCN(Cc5ccccn5)CC4)c4ccccc34)C(=O)NC2=O)c2ccccc21 ?
-0.0807

Check N.N.[Cl][Pt][Cl] [Cisplatin] too.
-0.00976

###

system: U-2932; test: growth inhibition by drug plus 177Lu-lilotomab satetraxetan (1 - RLU/untreated control) (fraction); higher = stronger inhibition; conditions: 10 nM; time (day): 4; 177Lu-lilotomab satetraxetan 1 ug/ml
Where growth inhibition by drug plus 177Lu-lilotomab satetraxetan equals or exceeds 0.05, the correct label is 1 (yes); where it does not, the label is 0 (no).

Does growth inhibition by drug plus 177Lu-lilotomab satetraxetan meet or surpass 0.05 for CC(=O)Nc1ccc(OC[C@](C)(O)C(=O)Nc2ccc([N+](=O)[O-])c(C(F)(F)F)c2)cc1 ?
1 (yes)

Moving on to the next compound: N[C@@H](Cc1ccc(N(CCCl)CCCl)cc1)C(=O)O
0 (no)

Another compound to look at: O=C(O)c1nn(Cc2ccc(Cl)cc2Cl)c2ccccc12
1 (yes)

Then this compound: C[C@]12CCC(=O)C(O)=C1CC[C@@H]1[C@@H]2CC[C@]2(C)C(=O)CC[C@@H]12
0 (no)

Query CCC1(c2ccc(N)cc2)CCC(=O)NC1=O (stereo not drawn) [Aminoglutethimide (Cytadren)] next
0 (no)

Also, CC(O)(CS(=O)(=O)c1ccc(F)cc1)C(=O)Nc1ccc(C#N)c(C(F)(F)F)c1 (stereo not drawn) [Bicalutamide (Casodex)] please.
0 (no)

What would you report for Cc1ccccc1-n1c(Cn2cnc3c(N)ncnc32)nc2cccc(C)c2c1=O ?
0 (no)

What do you get for C=C1C[C@@H]2[C@H](CC[C@]3(C)C(=O)CC[C@@H]23)[C@@]2(C)C=CC(=O)C=C12 ?
1 (yes)
